MEASUREMENT_PROTOCOL: NCI Yeast Anticancer Drug Screen. Data for the bub3 strain (AID 167)
CONDITION_NOTES: S. cerevisiae bub3 mutant strain, at 50.0 µM, active compounds read high
About 79,000 compounds went through this panel and 15% of them were active in at least one assay; those are over-represented in the sample as a whole.
OBSERVABLE: growth inhibition (%)
Report the value in % with no unit label.

Worked cases, growth inhibition given:
N#Cc1cccc2c(S(=O)(=O)O)cccc12 :: -2.85
CN(C)CCSCC(=O)N1c2ccccc2Sc2ccc(Cl)cc21 :: 7.95
O=C(Nc1cccc(Cl)c1)c1ccc(Cl)cc1 :: 26.7
CC1=NN(C(=O)Cc2ccccc2)C(=O)/C1=C\c1ccccc1O :: -26.2
NC1CC(=O)c2c(Cl)sc(Cl)c21 (stereo not drawn) :: 27.6

# evaluate next
# input compound: `COc1c(Cl)cc(NC(=S)C#N)cc1Cl` ; wanted: its growth inhibition
15.4
